- system under test: Deubiquitinase and deneddylase Dub1 (Chlamydia trachomatis serovar L2 (strain ATCC VR-902B / DSM 19102 /434/Bu))
- Sequence (B0B9A0 whole entry): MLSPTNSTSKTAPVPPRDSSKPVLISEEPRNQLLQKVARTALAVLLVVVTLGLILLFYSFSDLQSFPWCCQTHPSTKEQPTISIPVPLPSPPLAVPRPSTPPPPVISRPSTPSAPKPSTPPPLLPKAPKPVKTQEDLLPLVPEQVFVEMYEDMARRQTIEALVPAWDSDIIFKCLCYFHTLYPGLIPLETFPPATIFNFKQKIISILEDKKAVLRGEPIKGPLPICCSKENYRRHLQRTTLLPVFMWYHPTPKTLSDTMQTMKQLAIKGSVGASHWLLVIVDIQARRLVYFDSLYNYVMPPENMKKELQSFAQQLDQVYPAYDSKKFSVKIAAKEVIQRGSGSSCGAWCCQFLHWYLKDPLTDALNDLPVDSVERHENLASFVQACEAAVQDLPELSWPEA
- assay remarks: Inhibition of recombinant Chlamydia trachomatis DUB1 (130 to 401 residues) using Ub-Rh110Gly as fluorogenic substrate incubated for 60 mins by enzymatic analysis
- test conditions: read-out: IC50
measurement label: log10 of IC50 (log10 of the value in µM)
Friendly reminder: values = log10 of IC50, unit µM.

Examples from the recorded data:
smiles | endpoint value
N#Cc1ncc(C(=O)NCc2cccc(C(=O)NCc3ccccc3)c2)cn1 | 1.34
Cn1cc(CNC(=O)c2ccnc(C#N)n2)c2ccccc21 | 1.18
N#Cc1ncc(C(=O)N2CCc3cc(C(=O)NCc4ccccc4)ccc3C2)cn1 | 1.89
COc1ccc2c(CNC(=O)c3ccnc(C#N)n3)c[nH]c2c1 | 0.88
N#Cc1nccc(C(=O)NCc2c[nH]c3ccccc23)n1 | 0.79
N#Cc1ncc(NC(=O)Cc2c[nH]c3ccccc23)cn1 | 1.97
N#Cc1nccc(C(=O)NCc2c[nH]c3c(OCc4ccccc4)cccc23)n1 | 2.26
COc1ccc2[nH]cc(CNC(=O)c3ccnc(C#N)n3)c2c1 | 0.76
N#Cc1nccc(C(=O)NCc2c[nH]c3ccc(OCc4ccccc4)cc23)n1 | 0.46
N#Cc1ncc(C(=O)NCc2ccc(C(=O)NCc3ccccc3)cc2)cn1 | 1.43

Determine from records and report log10 of IC50 for "N#Cc1ncc(C(=O)NCc2ccc(C(=O)NCc3ccccc3)c3ccccc23)cn1"
1.00

Determine from records and report log10 of IC50 for "N#Cc1nccc(C(=O)NCc2ccn(C(=O)Cc3ccccc3)n2)n1"
1.36

Determine from records and report log10 of IC50 for "COc1ccccc1CNC(=O)[C@H]1CC[C@H](CNC(=O)c2cnc(C#N)nc2)CC1"
2.09

Determine from records and report log10 of IC50 for "N#Cc1nccc(NC(=O)Cc2c[nH]c3ccccc23)n1"
2.24

Determine from records and report log10 of IC50 for "N#Cc1nccc(C(=O)Nc2n[nH]c3ccccc23)n1"
1.36

Determine from records and report log10 of IC50 for "N#Cc1nccc(C(=O)NCc2c[nH]c3cccc(OCc4ccccc4)c23)n1"
2.26

Determine from records and report log10 of IC50 for "N#Cc1nccc(C(=O)NCc2n[nH]c3ccccc23)n1"
1.28

Determine from records and report log10 of IC50 for "N#Cc1nccc(C(=O)NCCc2c[nH]c3ccccc23)n1"
1.36

Determine from records and report log10 of IC50 for "N#Cc1nccc(C(=O)NCc2c[nH]c3cc(OCc4ccccc4)ccc23)n1"
1.18

Determine from records and report log10 of IC50 for "N#Cc1nccc(C(=O)Nc2cc[nH]n2)n1"
1.36

Determine from records and report log10 of IC50 for "N#Cc1nccc(C(=O)NCc2nn(C(=O)Cc3ccccc3)c3ccccc23)n1"
-0.01

Determine from records and report log10 of IC50 for "Cn1ccc(NC(=O)c2ccnc(C#N)n2)n1"
1.67

====

- system under test: Deubiquitinase and deneddylase Dub2 (Chlamydia trachomatis, UniProt O84875)
- Sequence (O84875 whole entry): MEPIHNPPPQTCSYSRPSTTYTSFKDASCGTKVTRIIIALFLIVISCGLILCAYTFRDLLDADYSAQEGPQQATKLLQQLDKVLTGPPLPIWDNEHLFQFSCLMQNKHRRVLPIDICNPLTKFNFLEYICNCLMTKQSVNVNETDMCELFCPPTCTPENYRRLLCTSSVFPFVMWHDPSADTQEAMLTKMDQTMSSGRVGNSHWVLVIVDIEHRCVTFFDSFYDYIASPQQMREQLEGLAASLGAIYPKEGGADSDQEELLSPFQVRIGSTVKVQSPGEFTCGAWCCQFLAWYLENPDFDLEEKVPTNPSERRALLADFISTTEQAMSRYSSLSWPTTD
measurement label: pIC50
Conceptually, pIC50 converts a concentration in mol/L into minus its log10.

Determine reported pIC50 for "N#Cc1nccc(C(=O)NCc2nn(C(=O)Cc3ccccc3)c3ccccc23)n1" ; test system: Deubiquitinase and deneddylase Dub2 (Chlamydia trachomatis, UniProt O84875).
4.52

====

- system under test: Deubiquitinase and deneddylase Dub1 (Chlamydia trachomatis serovar L2 (strain ATCC VR-902B / DSM 19102 /434/Bu), UniProt B0B9A0)
- assay remarks: Inhibition of recombinant Chlamydia trachomatis DUB1 (130 to 401 residues) using Ub-Rh110Gly as fluorogenic substrate incubated for 20 mins by enzymatic analysis
measurement label: IC50 (µM)
Supply the numeric figure in µM, leaving out any unit text.

Determine from records and report IC50 for "N#Cc1nc(C(=O)NCc2c[nH]c3ccccc23)co1"
3.1
